system: S. cerevisiae 2229-5C; assay: IC50 (50% growth inhibition) of diyne compounds; assay type: cell-based; settings: Saccharomyces cerevisiae, 22295C; strain 2229-5C
Collected IC50 values appear next to each entry.
Give the quantity in µg/mL, number only.

Data request, read-out IC50, for O=C(O)CCCCCCC/C=C/C#CC#Cc1ccco1
2.7

Recorded IC50 for CCOC(=O)CCCCCCC/C=C\C#CC#Cc1ccco1 , please?
8.9

* * *

target: Cytochrome P450 2C19 (Homo sapiens)
Sequence (P33261 whole entry): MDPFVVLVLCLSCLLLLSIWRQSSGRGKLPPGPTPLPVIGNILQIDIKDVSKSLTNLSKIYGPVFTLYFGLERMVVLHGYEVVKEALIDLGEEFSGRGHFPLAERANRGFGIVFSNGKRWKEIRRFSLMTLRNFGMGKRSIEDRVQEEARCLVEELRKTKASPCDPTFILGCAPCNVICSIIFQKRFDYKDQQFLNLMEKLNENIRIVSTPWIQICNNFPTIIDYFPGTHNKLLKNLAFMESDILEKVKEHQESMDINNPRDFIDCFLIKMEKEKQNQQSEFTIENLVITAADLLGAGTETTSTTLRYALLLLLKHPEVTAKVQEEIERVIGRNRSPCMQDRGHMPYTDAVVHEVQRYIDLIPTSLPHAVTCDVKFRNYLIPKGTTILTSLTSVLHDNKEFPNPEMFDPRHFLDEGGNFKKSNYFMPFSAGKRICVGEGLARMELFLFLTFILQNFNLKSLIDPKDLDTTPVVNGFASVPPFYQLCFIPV
Experimental endpoint: IC50 (µM)
All answers are understood in µM, so give the number only.

Which IC50 is reported with Cytochrome P450 2C19 (Homo sapiens) for this entry: O=C([O-])CCCCCCC/C=C\C#CC#Cc1ccco1.[K+] [Compound IV″] ?
32

* * *

assay: In vitro Mammalian Cell Cytotoxicity; type: cell-based; conditions: African green monkey, Vero cells
Experimental endpoint: CC50 (µg/mL)
The response must be a number in µg/mL with no trailing unit.

Give its CC50 value. Item: O=C(O)CCCCCCC/C=C\C#CC#Cc1ccco1
46

* * *

System: C. albicans DSY1024
Assay: IC50 (50% growth inhibition) of diyne compounds
Type: cell-based
Conditions: Candida albicans, DSY1024, read-out: C. albicans IC50
Protocol: The inhibition is partly measured by minimum inhibitory and minimum fungicidal concentration (MIC and MFC, respectively) and partly as IC50 (i.e. concentration required for 50% inhibition). IC50 against two different S. cerevisiae strains and two different C. albicans strains by a number of diyne compounds was determined and the results are shown in Table 17.
Experimental endpoint: IC50 (µg/mL)
Give your result in µg/mL as a bare value.

Molecule	IC50 [µg/mL]
O=C(O)CCCCCCC/C=C/C#CC#Cc1ccco1 [VIII″]	0.004
O=C(O)CCCCC/C=C\C#CC#Cc1ccco1	1.8
O=C(O)CCCCCC/C=C\C#CC#Cc1ccco1	0.5

// moving on: another record for IC50
Please look up its IC50: COC(=O)CCCCCCC/C=C\C#CC#Cc1ccco1
0.19

* * *

Biological target: Cytochrome P450 2C8 (Homo sapiens, UniProt P10632)
Sequence (P10632 1-490): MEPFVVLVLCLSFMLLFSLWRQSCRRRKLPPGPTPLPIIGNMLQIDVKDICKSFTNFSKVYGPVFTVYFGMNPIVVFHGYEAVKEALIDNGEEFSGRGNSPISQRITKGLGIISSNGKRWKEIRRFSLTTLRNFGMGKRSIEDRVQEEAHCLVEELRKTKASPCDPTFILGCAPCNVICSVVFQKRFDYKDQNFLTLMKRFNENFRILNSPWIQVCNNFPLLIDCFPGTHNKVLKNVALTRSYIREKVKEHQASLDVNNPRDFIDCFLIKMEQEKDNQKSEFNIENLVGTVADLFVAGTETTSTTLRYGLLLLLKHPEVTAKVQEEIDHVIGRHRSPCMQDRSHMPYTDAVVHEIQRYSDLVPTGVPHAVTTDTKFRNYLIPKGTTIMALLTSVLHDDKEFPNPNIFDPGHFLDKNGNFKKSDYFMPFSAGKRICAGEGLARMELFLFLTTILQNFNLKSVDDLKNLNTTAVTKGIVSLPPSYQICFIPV
pIC50: −log10 of the molar value.
Experimental endpoint: pIC50

Name the reported pIC50 value associated with the compound O=C([O-])CCCCCCC/C=C\C#CC#Cc1ccco1.[K+]
< 4.00

* * *

Tested on: CYP3A
Assay: Inhibition of cytochrome P450 enzymes
Format: in vitro ADME
Settings: human, probe testosterone; substrate testosterone
Procedure: Peak areas corresponding to the metabolite of each substrate were recorded. The percent of control activity was then calculated by comparing the peak area obtained in the presence of the diyne potassium salt and in the absence.
Experimental endpoint: IC50 (µM)
Kindly answer with a numeric value in µM, unit omitted.

If you can, please state the reported IC50 value of O=C([O-])CCCCCCC/C=C\C#CC#Cc1ccco1.[K+] .
57

* * *

experiment: Aqueous solubility (equilibrated 25° C., 24 hours, HPLC); format: physicochemical; details: water, thermodynamic from solid
Experimental endpoint: solubility at 24 h

I'd like to know its solubility at 24 h. The molecule in question is O=C([O-])CCCCCCC/C=C\C#CC#Cc1ccco1.[K+] [Compound IV″]
> 96.5 mg/mL

* * *

biological target: Cytochrome P450 2C9 (Homo sapiens)
Sequence (P11712 whole entry): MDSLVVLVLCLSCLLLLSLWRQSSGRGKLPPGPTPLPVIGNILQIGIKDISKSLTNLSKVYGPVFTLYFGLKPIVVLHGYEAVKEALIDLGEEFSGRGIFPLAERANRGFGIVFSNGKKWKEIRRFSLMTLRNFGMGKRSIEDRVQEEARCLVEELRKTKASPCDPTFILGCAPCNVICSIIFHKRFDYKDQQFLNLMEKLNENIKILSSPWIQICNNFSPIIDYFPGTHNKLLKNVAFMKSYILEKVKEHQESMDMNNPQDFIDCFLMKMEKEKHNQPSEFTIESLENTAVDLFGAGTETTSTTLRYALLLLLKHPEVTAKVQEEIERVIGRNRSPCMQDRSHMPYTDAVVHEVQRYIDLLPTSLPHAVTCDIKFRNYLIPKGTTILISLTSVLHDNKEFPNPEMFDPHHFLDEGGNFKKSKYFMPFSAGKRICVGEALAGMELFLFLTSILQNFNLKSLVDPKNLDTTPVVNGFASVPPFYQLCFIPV
Experimental endpoint: IC50 (µM)
// return numeric value only (unit: µM, not printed)

Look at this compound and give its reported IC50. O=C([O-])CCCCCCC/C=C\C#CC#Cc1ccco1.[K+] [Compound IV″]
18

* * *

Target chain: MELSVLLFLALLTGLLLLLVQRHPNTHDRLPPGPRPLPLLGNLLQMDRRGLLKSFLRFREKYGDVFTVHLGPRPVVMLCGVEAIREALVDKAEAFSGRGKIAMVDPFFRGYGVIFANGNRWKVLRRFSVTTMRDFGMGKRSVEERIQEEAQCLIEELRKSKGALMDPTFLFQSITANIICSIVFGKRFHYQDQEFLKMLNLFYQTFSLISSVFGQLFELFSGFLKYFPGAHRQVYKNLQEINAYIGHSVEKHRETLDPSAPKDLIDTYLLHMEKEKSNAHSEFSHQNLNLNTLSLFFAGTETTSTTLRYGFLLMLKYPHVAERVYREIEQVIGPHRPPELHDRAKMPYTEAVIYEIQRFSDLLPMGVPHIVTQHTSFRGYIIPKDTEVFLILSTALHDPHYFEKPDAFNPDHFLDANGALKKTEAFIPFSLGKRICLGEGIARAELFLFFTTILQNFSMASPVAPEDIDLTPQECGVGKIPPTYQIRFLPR
Experimental endpoint: IC50
Number first, unit second.

Record request: IC50 value, item O=C([O-])CCCCCCC/C=C\C#CC#Cc1ccco1.[K+] [Compound IV″]
24 µM

* * *

system: C. parapsilosis ATCC-90018; test: MIC versus reference Candida strains (broth micro dilution); details: Lodderomyces parapsilosis, ATCC90018
Experimental endpoint: MIC (µg/mL)
Give the value, in units of µg/mL, as a plain number.

Structure string	Tgt	Scale unit	Value
O=C(O)CCCCCCC/C=C\C#CC#Cc1ccco1	C. parapsilosis ATCC-90018	µg/mL	2.56

Now let's try a different one.
Look at this compound and give its reported MIC. O=C([O-])CCCCCCCCCC#CC#Cc1ccco1.[K+]
5.12

* * *

system: C. krusei ATCC-6258; test: MIC versus reference Candida strains (broth micro dilution); details: Pichia kudriavzevii, ATCC6258
Experimental endpoint: MIC (µg/mL)
Reply numerically in µg/mL, unit not repeated.

Example cases with answers are listed next.
Compound	Value
O=C([O-])CCCCCCCCCC#CC#Cc1ccco1.[K+] [Compound XII″]	0.64
O=C([O-])CCCCCCC/C=C\C#CC#Cc1ccco1.[K+] [Compound IV″]	0.02

In the following, a different compound is considered.
Requested field: MIC. Item: O=C(O)CCCCCCC/C=C\C#CC#Cc1ccco1 [Compound III″]
0.01

* * *

Below, each entry is listed with its recorded IC50.
Tested on: S. cerevisiae AD1-9
Assay: IC50 (50% growth inhibition) of diyne compounds
Assay type: cell-based
Conditions: Saccharomyces cerevisiae, AD19; strain AD1-9
Method: The inhibition is partly measured by minimum inhibitory and minimum fungicidal concentration (MIC and MFC, respectively) and partly as IC50 (i.e. concentration required for 50% inhibition). IC50 against two different S. cerevisiae strains and two different C. albicans strains by a number of diyne compounds was determined and the results are shown in Table 17.

Completed entries (count: 4):
Compound	IC50
COC(=O)CCCCCCC/C=C\C#CC#Cc1ccco1	> 0.4 µg/mL
O=C(O)CCCCCC/C=C\C#CC#Cc1ccco1	~50 µg/mL
O=C(O)CCCCCCC/C=C/C#CC#Cc1ccco1 [VIII″]	0.4 µg/mL
CCOC(=O)CCCCCCC/C=C\C#CC#Cc1ccco1	0.7 µg/mL

Data request, read-out IC50, for O=C(O)CCCCC/C=C\C#CC#Cc1ccco1
~6.25 µg/mL

* * *

test system: S. cerevisiae 2229-5C; test: IC50 (50% growth inhibition) of diyne compounds; type: cell-based; settings: Saccharomyces cerevisiae, 22295C; strain 2229-5C
Experimental endpoint: IC50

Worked cases, IC50 given:
Structure string	IC50
COC(=O)CCCCCCC/C=C\C#CC#Cc1ccco1	> 0.4 µg/mL
O=C(O)CCCCCC/C=C\C#CC#Cc1ccco1	> 200 µg/mL

// next entry
Item O=C(O)CCCCC/C=C\C#CC#Cc1ccco1 has what recorded IC50?
~50 µg/mL
